Target: von Hippel-Lindau disease tumor suppressor (Homo sapiens, UniProt P40337)
Sequence (P40337 whole entry): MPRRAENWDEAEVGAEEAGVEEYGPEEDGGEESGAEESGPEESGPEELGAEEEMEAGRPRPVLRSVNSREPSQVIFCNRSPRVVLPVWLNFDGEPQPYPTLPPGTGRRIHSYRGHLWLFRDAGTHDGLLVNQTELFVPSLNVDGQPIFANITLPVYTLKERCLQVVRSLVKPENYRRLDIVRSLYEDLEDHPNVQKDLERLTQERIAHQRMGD
Test: biochemical
Description: Binding affinity to VHL (unknown origin)-NanoLuc fusion protein expressed in HEK293 cells assessed as apparent dissociation constant incubated for 30 mins in presence of digitonin by NanoBRET assay
pKd: −log10 of the molar value.
Observed Property: pKd

>  <Smiles Entry>
CC(=O)NC(C)(C)C(=O)N1C[C@H](O)C[C@H]1C(=O)N[C@H](Cc1ccc(-c2ccccc2)cc1)C(N)=O

>  <pKd>
< 4.29

$$$$
>  <Smiles Entry>
CC(=O)NC1(C(=O)N2C[C@H](O)C[C@H]2C(=O)N[C@H](Cc2ccc(-c3ccccc3)cc2)C(N)=O)CC1

>  <pKd>
< 4.29

$$$$

As a next step, examine the compound that follows.
For reference, reported pKd for Cc1cn(CC(=O)N2C[C@H](O)C[C@H]2C(=O)N[C@H](Cc2ccc(-c3ccccc3)cc2)C(N)=O)nn1 stands at < 4.29

Just for reference, ChEMBL document CHEMBL5506066 is where these values come from.
